studySystem: T1, Human β-cardiac myosin S2 peptide, wild-type (MYH7, 19 residues) (human, also: in FRET: FITC on N-terminus of one monomer, terbium-DTPA-cytosine chelate on C-terminal Lys of the other)
T1 construct: Chemically synthesized; forms a coiled-coil dimer; also called human cardiac myosin S2 peptide; cardiac muscle myosin S2^pep
T1 peptide: EMNERLEDEEEMNAELTAK
measurementProtocol: competitive ELISA (curve fit of OD, FIG. 44B); antibody 1:64, 62.5 nM human cardiac S2 peptide, rabbit skeletal myosin coated; the sentence does not name the target
Where no end group is shown, it is not given here.
observationType: Kd (nM)
Only the number, expressed in nM, is required.

Specify Kd for EMNERLEDEREMKAELTAK (also called destabilizing peptide; unlabeled destabilizer) [Destabilizer peptide] and stop.
6
